// endpoint pIC50 / system human mGlu2 (Homo sapiens, UniProt Q14416)
pIC50 is a log-scale quantity: -log10 of the concentration expressed in molar.

[[record]]
molecule = "Cn1ccc(CCc2cc3c(cc2-c2ccc(F)cc2F)C(=O)NC3)n1 [Compound A1]"
metric = "pIC50"
assay_result = 6.72

[[record]]
molecule = "O=C1NCc2cc(-c3cnc(Cl)n3C3CCCCO3)c(-c3ccc(F)cc3F)cc21 (centres unmarked) [Compound 148]"
metric = "pIC50"
assay_result = 6.34

[[record]]
molecule = "N#Cc1cccc(-c2cc3c(cc2-c2ccc(F)cc2Cl)C(=O)NC3)c1 [Compound 169]"
metric = "pIC50"
assay_result = 5.65

[[record]]
molecule = "Cn1cc(-c2cc3c(cc2-c2ccc(F)cc2F)C(=O)NC3)cc1C#N [Compound 125]"
metric = "pIC50"
assay_result = 5.94

[[record]]
molecule = "CS(=O)(=O)n1cc(-c2cc3c(cc2-c2ccc(F)cc2F)C(=O)NC3)cn1 [Compound 127]"
metric = "pIC50"
assay_result = 5.10

[[record]]
molecule = "[2H]C([2H])(c1ccn(C)n1)C([2H])([2H])c1cc2c(cc1-c1ccc(F)cc1F)C(=O)NC2 [Compound A3]"
metric = "pIC50"
assay_result = 6.66


Short answer on human mGlu2 (Homo sapiens, UniProt Q14416) for [2H]C1([2H])NC(=O)c2cc(-c3ccc(F)cc3F)c(C([2H])([2H])C([2H])([2H])c3ccn(C)n3)cc21 [Compound A5] , pIC50: 6.69

Short answer on human mGlu2 (Homo sapiens, UniProt Q14416) for O=C1NCc2cc(-c3cnco3)c(-c3ccc(F)cc3)cc21 [Compound 2] , pIC50: 5.23

Short answer on human mGlu2 (Homo sapiens, UniProt Q14416) for N#Cc1cccc(CCc2cc3c(cc2-c2ccc(F)cc2F)C(=O)NC3)c1 [Compound A4] , pIC50: 6.32

----------
molecular target: rat mGlu2 (Rattus norvegicus)
Listed molecules paired with reported pIC50
pIC50 is a log-scale quantity: -log10 of the concentration expressed in molar.

// solved cases for pIC50 follow
[[record]]
molecule = "O=C1NCc2cc(-c3cnc4[nH]ccc4c3)c(-c3ccc(F)cc3F)cc21 [Compound 87]"
target_entity = "rat mGlu2 (Rattus norvegicus)"
assay_result = 6.21

[[record]]
molecule = "Cc1cc(-c2cc3c(cc2-c2ccc(F)cc2F)C(=O)NC3)c(C)n1C [Compound 97]"
target_entity = "rat mGlu2 (Rattus norvegicus)"
assay_result = 6.03

[[record]]
molecule = "Cc1ccc(-c2cc3c(cc2-c2ccc(F)cc2)C(=O)NC3)c(C)n1 [Compound 29]"
target_entity = "rat mGlu2 (Rattus norvegicus)"
assay_result = 5.44

[[record]]
molecule = "Cc1c(-c2cc3c(cc2-c2ccc(F)cc2F)C(=O)NC3)cc(C#N)n1C [Compound 90]"
target_entity = "rat mGlu2 (Rattus norvegicus)"
assay_result = 6.65


Short answer on rat mGlu2 (Rattus norvegicus) for O=C1NCc2cc(-c3ccc4ccncc4c3)c(-c3ccc(F)cc3)cc21 [Compound 15] , pIC50: 5.39

Short answer on rat mGlu2 (Rattus norvegicus) for O=C1NCc2cc(-c3cnc4[nH]ccc4c3)c(-c3ccc(F)cc3)cc21 [Compound 38] , pIC50: 5.71

Short answer on rat mGlu2 (Rattus norvegicus) for O=C1NCc2cc(C3CCCCC3)c(-c3ccc(F)cc3)cc21 [Compound 63] , pIC50: 5.58

Short answer on rat mGlu2 (Rattus norvegicus) for N#Cc1cccc(-c2cc3c(cc2-c2ccc(F)cc2F)C(=O)NC3)c1F [Compound 94] , pIC50: 6.32

Short answer on rat mGlu2 (Rattus norvegicus) for Cn1ccc(-c2cc3c(cc2-c2ccc(F)cc2)C(=O)NC3)n1 [Compound 35] , pIC50: 5.99

Short answer on rat mGlu2 (Rattus norvegicus) for O=C1NCc2cc(-c3ccc4[nH]ccc4c3)c(-c3ccc(F)cc3F)cc21 [Compound 89] , pIC50: 6.03

----------
// endpoint pIC50 / system rat mGlu2 (Rattus norvegicus, UniProt P31421)
pIC50 is a log-scale quantity: -log10 of the concentration expressed in molar.

// solved cases for pIC50 follow
[[record]]
record_smiles = "Cc1c(-c2cc3c(cc2-c2ccc(F)cc2)C(=O)NC3)ccc2[nH]ncc12"
assay_result = 5.89

[[record]]
record_smiles = "O=C1NCc2cc(-c3ccc4scnc4c3)c(-c3ccc(F)cc3F)cc21"
assay_result = 5.67


Now turn to the next compound.
Short answer on rat mGlu2 (Rattus norvegicus, UniProt P31421) for `COc1cc(C#N)cc(-c2cc3c(cc2-c2ccc(F)cc2F)C(=O)NC3)c1` , pIC50: 5.84

----------
Listed molecules paired with reported pIC50
biological target: human mGlu2 (Homo sapiens, UniProt Q14416); construct: expressed in transfected cells; host or cells: HEK-293 cells stably co-expressing GIRK channels; test: mGlu GIRK cell-based thallium flux assay, human mGlu2; conditions: HEK-293 cells co-expressing human mGlu2 and GIRK, EC80 glutamate
Sequence (Q14416 19-872): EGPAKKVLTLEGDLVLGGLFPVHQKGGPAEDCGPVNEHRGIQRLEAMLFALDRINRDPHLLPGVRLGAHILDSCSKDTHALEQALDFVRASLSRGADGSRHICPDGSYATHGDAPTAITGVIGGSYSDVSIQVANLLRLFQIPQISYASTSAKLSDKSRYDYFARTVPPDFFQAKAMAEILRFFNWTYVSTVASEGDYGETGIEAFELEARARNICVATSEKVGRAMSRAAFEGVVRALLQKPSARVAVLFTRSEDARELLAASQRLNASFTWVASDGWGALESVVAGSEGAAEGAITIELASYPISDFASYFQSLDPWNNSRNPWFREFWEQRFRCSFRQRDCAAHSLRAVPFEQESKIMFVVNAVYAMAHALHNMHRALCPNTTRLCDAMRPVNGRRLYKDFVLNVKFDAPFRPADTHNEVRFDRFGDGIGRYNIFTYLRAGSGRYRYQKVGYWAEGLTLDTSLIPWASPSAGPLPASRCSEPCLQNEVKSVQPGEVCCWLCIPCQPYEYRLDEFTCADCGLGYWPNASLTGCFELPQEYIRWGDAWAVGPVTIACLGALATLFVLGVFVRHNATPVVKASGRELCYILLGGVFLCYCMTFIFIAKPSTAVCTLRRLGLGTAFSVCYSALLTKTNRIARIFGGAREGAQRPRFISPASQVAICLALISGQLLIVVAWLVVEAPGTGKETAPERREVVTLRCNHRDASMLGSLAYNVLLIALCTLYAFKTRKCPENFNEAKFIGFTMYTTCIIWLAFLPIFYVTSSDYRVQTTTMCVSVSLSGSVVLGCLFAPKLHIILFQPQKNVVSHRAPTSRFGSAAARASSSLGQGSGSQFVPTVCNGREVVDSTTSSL
pIC50 is a log-scale quantity: -log10 of the concentration expressed in molar.

// solved cases for pIC50 follow
[[record]]
molecule = "N#Cc1cccc(-c2cc3c(cc2-c2ccc(F)c(F)c2F)C(=O)NC3)c1"
assay_result = 6.14

[[record]]
molecule = "Cn1nncc1-c1cccc(-c2cc3c(cc2-c2ccc(F)cc2F)C(=O)NC3)c1"
assay_result = 6.07


The value of pIC50 measured for the molecule `COc1cc(C#N)ccc1-c1cc2c(cc1-c1cccc(C#N)c1)CNC2=O` turned out to be 5.61

The value of pIC50 measured for the molecule `CC(=O)Nc1ccccc1-c1cc2c(cc1-c1ccc(F)cc1F)C(=O)NC2` turned out to be 5.98

The value of pIC50 measured for the molecule `Nc1ccccc1-c1cc2c(cc1-c1ccc(F)cc1F)C(=O)NC2` turned out to be 6.09

The value of pIC50 measured for the molecule `O=C1NCc2cc(-c3cccc4c3OCC4)c(-c3ccc(F)cc3F)cc21` turned out to be 6.27

The value of pIC50 measured for the molecule `N#Cc1cccc(-c2cc3c(cc2-c2ccc(F)cc2C#N)C(=O)NC3)c1` turned out to be 6.66

----------
// endpoint pIC50 / system Rat mGlu3 (UniProt P31422)
pIC50 is a log-scale quantity: -log10 of the concentration expressed in molar.

Short answer on Rat mGlu3 (UniProt P31422) for Cc1c(-c2cc3c(cc2-c2ccc(F)cc2)C(=O)NC3)ccc2[nH]ncc12 [Compound 9] , pIC50: 5.70

Short answer on Rat mGlu3 (UniProt P31422) for Cc1cc(-c2cc3c(cc2-c2ccc(F)cc2F)C(=O)NC3)c(C#N)n1C [Compound 98] , pIC50: 5.58

Short answer on Rat mGlu3 (UniProt P31422) for Cc1ncc(-c2cc3c(cc2-c2ccc(F)cc2)C(=O)NC3)s1 [Compound 5] , pIC50: 5.24

Short answer on Rat mGlu3 (UniProt P31422) for O=C1NCc2cc(-c3ccn(C4CC4)n3)c(-c3ccc(F)cc3F)cc21 [Compound 108] , pIC50: 5.32

----------
target: human mGlu2 (Homo sapiens)
metric: IC50 (µM)
Answer format: numeric, µM implied, no suffix.

[[record]]
record_smiles = "Cc1ccc(-c2cc3c(cc2-c2cccc(C#N)c2)CNC3=O)c(C)c1"
metric = "IC50"
assay_result = 4.59

[[record]]
record_smiles = "O=C1NCc2cc(-c3cccc4c3CNC4=O)c(-c3ccc(F)cc3F)cc21"
metric = "IC50"
assay_result = 3.18


Now turn to the next compound.
Short answer on human mGlu2 (Homo sapiens) for `Cn1nc(CCc2cc3c(cc2-c2ccc(F)cc2F)C(=O)NC3)cc1C#N` , IC50: 0.273

----------
target: rat mGlu2 (Rattus norvegicus, UniProt P31421)
Sequence (P31421 19-872): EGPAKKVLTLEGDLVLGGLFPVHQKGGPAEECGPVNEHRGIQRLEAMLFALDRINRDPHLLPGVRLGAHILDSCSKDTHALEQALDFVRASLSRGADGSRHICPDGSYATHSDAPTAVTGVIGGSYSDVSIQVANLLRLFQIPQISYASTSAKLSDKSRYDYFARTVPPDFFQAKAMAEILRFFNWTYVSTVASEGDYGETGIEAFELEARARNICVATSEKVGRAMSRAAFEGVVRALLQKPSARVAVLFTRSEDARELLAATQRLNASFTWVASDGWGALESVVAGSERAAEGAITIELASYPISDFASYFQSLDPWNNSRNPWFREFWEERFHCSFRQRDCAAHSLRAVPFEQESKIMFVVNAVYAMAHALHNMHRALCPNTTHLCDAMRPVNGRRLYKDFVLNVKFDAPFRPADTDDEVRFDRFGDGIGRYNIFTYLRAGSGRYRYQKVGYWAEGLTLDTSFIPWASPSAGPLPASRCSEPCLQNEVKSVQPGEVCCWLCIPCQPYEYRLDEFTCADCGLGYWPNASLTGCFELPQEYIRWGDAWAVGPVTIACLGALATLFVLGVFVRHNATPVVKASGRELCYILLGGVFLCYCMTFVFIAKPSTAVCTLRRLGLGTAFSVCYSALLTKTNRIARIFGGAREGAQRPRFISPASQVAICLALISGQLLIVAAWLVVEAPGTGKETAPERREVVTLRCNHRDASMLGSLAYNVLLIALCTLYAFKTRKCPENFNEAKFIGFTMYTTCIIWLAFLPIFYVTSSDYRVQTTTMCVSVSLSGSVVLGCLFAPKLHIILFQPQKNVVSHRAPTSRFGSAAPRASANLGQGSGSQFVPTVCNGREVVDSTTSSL
Listed compounds paired with reported pIC50
pIC50 is a log-scale quantity: -log10 of the concentration expressed in molar.

[[record]]
record_smiles = "N#Cc1ccc(-c2cc3c(cc2-c2ccc(F)cc2F)C(=O)NC3)c(F)c1"
metric = "pIC50"
assay_result = 5.54

[[record]]
record_smiles = "Cn1cc2cccc(-c3cc4c(cc3-c3ccc(F)cc3)C(=O)NC4)c2n1"
metric = "pIC50"
assay_result = 5.91

[[record]]
record_smiles = "CC(C)c1ncccc1-c1cc2c(cc1-c1ccc(F)cc1)C(=O)NC2"
metric = "pIC50"
assay_result = 5.12


Short answer on rat mGlu2 (Rattus norvegicus, UniProt P31421) for `COc1ncccc1-c1cc2c(cc1-c1ccc(F)cc1F)C(=O)NC2` , pIC50: 5.95

----------
Listed compounds paired with reported pIC50
target: rat mGlu2 (Rattus norvegicus, UniProt P31421)
pIC50 is a log-scale quantity: -log10 of the concentration expressed in molar.

Short answer on rat mGlu2 (Rattus norvegicus, UniProt P31421) for O=C1NCc2cc(-c3ccc4nccn4c3)c(-c3ccc(F)cc3)cc21 [Compound 20] , pIC50: 5.08

Short answer on rat mGlu2 (Rattus norvegicus, UniProt P31421) for Cc1cc(F)ncc1-c1cc2c(cc1-c1ccc(F)cc1F)C(=O)NC2 [Compound 81] , pIC50: 5.94

Short answer on rat mGlu2 (Rattus norvegicus, UniProt P31421) for CN(C)c1ncccc1-c1cc2c(cc1-c1ccc(F)cc1F)C(=O)NC2 [Compound 71] , pIC50: 5.29
